The values you see were collected from the supplement of paper PMC11451515.

tested on: SEM cells; experiment: cell viability relative to DMSO control; higher = less cytotoxic; details: RPMI 5 mM glucose + 10% dialyzed FBS; 48 h; 5.12 µM
PARAMETER MEASURED: cell viability (%)
Numbers only, in %.

O=c1[nH]cnc2c1ncn2[C@H]1CC[C@@H](CO)O1 | 99.5

Return reported cell viability values for all items listed beneath this line.
1. O=C(CCCCCCC(=O)Nc1ccccc1)NO
2. COc1cc([C@@H]2c3cc4c(cc3[C@@H](O[C@@H]3O[C@@H]5CO[C@@H](c6cccs6)O[C@H]5[C@H](O)[C@H]3O)[C@H]3COC(=O)[C@H]23)OCO4)cc(OC)c1O
3. CC(NCc1ccc2c(c1)[nH]/c(=N\C(=O)c1ccc(-c3cn[nH]c3)s1)n2CC(C)(C)O)C(C)(C)C (centres undefined)

// result
1: 16.4; 2: 63.4; 3: 6.16
